REPORTED_METRIC: melting point

Sample records with melting point:
# COMPOUND, RESULT
measured = [
    ("CNC(=O)c1cc(C)ccc1Nc1nc(Cl)ncc1Cl", "192 to 210 °C"),
    ("COC(=O)c1ccccc1C(=O)Nc1cc(C(F)(F)F)on1", "116 to 117 °C"),
    ("COc1ccc(COC2CCCn3c2c(-c2ccccc2)c2cc(C)c(C)cc2c3=O)cc1 (configuration not stated)", "145 to 146 °C"),
    ("Cn1nc2cccc(OCC3CC3)c2c1S(N)(=O)=O", "139 to 141 °C"),
    ("CC1(C)CC(NC(=O)c2ccc(-c3cc4cc(Cl)c(Cl)cc4[nH]3)c(O)c2)CC(C)(C)N1", "> 270 °C"),
]

Now for another entry.
Documented melting point of Cc1nc[nH]c1CSCCN=C(NC#N)NCCN : 164 to 167 °C

* * *

Listed compounds paired with reported melting point

Answered cases to consult:
# COMPOUND, RESULT
records = [
    ("COc1cc2c(cc1OC)N(C(=O)OCc1ccccc1)C(C)C(=CN)C2=O (stereo not drawn)", "143 to 150 °C"),
    ("O=C(O)C1CCCN2CC(CS)C(=O)N12 (stereo not drawn)", "146 to 147 °C"),
    ("CCOC=C1C=C(C(C)(C)C)C(=O)C(C(C)(C)C)=C1", "114 to 117 °C"),
    ("CCC1NC(=O)N(C)C(=O)N1", "202 to 203 °C"),
]

Item: CC1=NS(=O)(=O)N(Cc2ccncc2)C=C1 | melting point: 100 to 101 °C

According to the records, this compound COc1ccc2cc(Br)cc(C)c2n1 displays melting point of 89 to 91 °C

Form field melting point, entry Nc1ccc2c(c1)C(=Cc1cccs1)c1ccccc1-2 : 143 °C

Short answer for Cc1ccccc1-c1ccc(C(=O)N2Cc3ccc(C(=O)NCCCCc4ccccc4)n3Cc3ccccc32)cc1C : melting point was 129 to 131 °C

* * *

Reported melting point values for a set of molecules

# MOLECULE, RESULT
data = [
    ("NC(=S)NN=C(CNC(=O)C1CCCCC1)c1ccccc1", "104 to 110 °C"),
]

Sure, the documented melting point for COc1ccc(-c2nc3nccnc3[nH]2)c(N(C)C)c1 is 279 to 280 °C

CN1CCN(c2ccc(C(=O)N3CCCCc4ccccc43)c(Cl)c2)CC1 has a reported melting point of 138 to 140 °C

The molecule COc1cc(C(=O)O)nc(-c2cccc([N+](=O)[O-])c2)c1 showed melting point equal to 207 to 210 °C

Lab book: melting point of CCCC12CCC3=C(CCc4cc(O)ccc43)C1=CCC2=O (stereo not given) noted as 149 to 155 °C

Form: molecule = Oc1cc2c(cc1Cl)OCO2 ; melting point = 95 °C

The molecule identified as O=C(Nc1ccccn1)[C@H](Cc1ccccc1)C[C@@H](Cc1ccccc1)C(=O)N[C@@H](CSCc1ccccc1)C(=O)O registered its melting point at 75 to 80 °C

Noted for CS(=O)c1ccc(C2=C(c3ccccc3)C(=O)C(C)(C)O2)cc1Cl (stereo not given) : its melting point reads 120 to 121 °C

So for CCOc1ccc(S(=O)(=O)N2CCN(C)CC2)cc1C#N , the logged melting point turned out to be 130 to 131 °C

The molecule listed as Fc1cccc(SCc2nnc(-c3ccc4c(c3)CCO4)o2)c1 has a reported melting point of 55 to 56 °C

* * *

# melting point values compiled below

# annotated cases, reported melting point shown
# COMPOUND, RESULT
rows = [
    ("CC1CC(=O)Nc2nc(OCCCCN3CCN(c4cccc(Cl)c4Cl)CC3)ccc21 (stereo not given)", "53 to 54 °C"),
    ("Clc1cccc(Nc2nc(OCC3CCCCC3)c3[nH]cnc3n2)c1", "196 to 199 °C"),
    ("CCCCCCCCCCc1sc2c(sc3c2sc2c4sccc4sc23)c1CCCCCCCCCC", "50.9 to 52.5 °C"),
    ("CCN1CCN(CCCOc2cc3ncc(C#N)c(Nc4ccc(Sc5nccn5C)c(Cl)c4)c3cc2OCCOC)CC1", "188 to 190 °C"),
    ("CN1C(=O)CN=C(N2CCC(C)(C)CC2)c2ccccc21", "143 to 145 °C"),
    ("CCc1nc(C)[nH]c1I", "156 to 159 °C"),
    ("CCOCc1cnc2c(NC(=O)c3c(Cl)cccc3Cl)cccc2c1Cl", "121 to 123 °C"),
    ("Cc1c(SCc2ccco2)ccnc1CSc1nc2ccccc2n1CCN(C)C", "87 to 89 °C"),
    ("CCC(=O)Nc1ccc(-c2ccnc3c(C(=O)c4ccco4)cnn23)cc1", "235 to 237 °C"),
]

Let's switch to this compound now.
Measured melting point, CCC(CC)(CC(=O)Nc1cccc(OCc2ccc3ccc(C(F)(F)F)cc3n2)c1)C(=O)O : 85 to 86 °C

* * *

REPORTED_METRIC: melting point

Worked examples, 5 compounds total:
# COMPOUND, melting point
records = [
    ("NS(=O)(=O)c1cccc(NC(=O)c2cnn3c(C(F)F)cc(-c4ccc(C(F)(F)F)c(Cl)c4)nc23)c1", "272 °C"),
    ("O=C(N[C@H](Cc1ccccc1C(F)(F)F)[C@@H](O)c1ccc(F)cc1)c1cccc2ccccc12 (racemic)", "193 to 194 °C"),
    ("N=C(N)NC[C@H]1CC[C@H](C(=O)O)CC1", "206 to 208 °C"),
    ("Cc1cc(Oc2ccc(Cl)c(C(F)(F)F)c2)c(C)cc1N=CNC#N", "111 to 114 °C"),
    ("CC(C)C[C@H](NC(=O)c1ccc2c(c1)Nc1ccccc1S2)C(=O)N[C@H]1CCOC1OC(=O)C(C)(C)C (some centres undefined)", "107 to 109 °C"),
]

Entry under test: O=[N+]([O-])c1cccc(C=NC2CCOc3ccccc32)c1 (centres undefined) . Its melting point was 117 to 118 °C

// melting point lookup, compound = FC(F)c1nc2ccccc2n1-c1nc(Nc2cccnn2)nc(N2CCOCC2)n1 , result: 271 to 273 °C

Form field melting point, entry CC(C)OC(=O)C1=C2SCC(=CC(=O)N(C)C)N2CC1C (centres undefined) : 126 to 128 °C

Measured melting point, CCCCOc1ccc(C(=O)Nc2ccc3cc(CN4CCCC4)cnc3c2C)c(F)c1 : 138 °C

* * *

melting point: recorded values

# MOLECULE, melting point
data = [
    ("C=CC(=O)OCCNC(=O)CCc1cc(-n2nc3ccccc3n2)c(O)c(C(C)(C)C)c1", "80 to 83 °C"),
]

melting point recorded for this molecule, CCC(C)OC1OC(C(O)N(CC(C)C)C(=O)N(CCCl)N=O)C(O)C1O (stereo unspecified) , is 80 to 82 °C

Record CS(=O)(=O)Nc1cccc(S(=O)(=O)N2CCOc3c(N4CCNCC4)cccc32)c1 . Reported melting point: 158 to 164 °C

Form: molecule = CCC(=CC(CNC(C)=O)=NO)C(C)[N+](=O)[O-] (stereo unspecified) ; melting point = 124 to 125 °C

Form: molecule = Cc1nccn1-c1cc(C#N)cc(C(F)(F)F)c1 ; melting point = 132 to 134 °C

Data point: O=C1Nc2ccccc2C1=Cc1ccccc1 ; melting point = 177 to 179 °C

* * *

REPORTED_METRIC: melting point

# COMPOUND, melting point
data = [
    ("Cc1ccc(NS(=O)(=O)c2cccs2)c2[nH]c(C(=O)NCCSC(c3ccccc3)(c3ccccc3)c3ccccc3)cc12", "241 to 242 °C"),
]

The recorded melting point for CN(C)C(=O)c1cnn(-c2c(Cl)cc(Cl)cc2Cl)c1N is 226 to 228 °C

Memo: CCCCCCCCCCCCCCOc1ccccc1NC(=O)c1cc(Sc2nnnn2-c2cccc(C(=O)O)c2)c2ccccc2c1O , reported melting point: 136 to 138 °C

* * *

As shown below, each of these molecules has a reported melting point value.

Examples with their reported melting point follow.
# MOLECULE, melting point
records = [
    ("COc1cc(CBr)ccc1-c1ccccc1", "187 to 189 °C"),
    ("CC(=O)c1cc(N(C)C)ccc1NC(=O)c1ccc(OCc2ccccc2)cc1", "139 to 140 °C"),
    ("CCCCCCCOc1ccc(C(=O)O)c(C)c1", "74 to 76 °C"),
    ("Cc1ccc(F)cc1C(=O)Nc1ccc(C(=O)N2CCCCc3sccc32)cn1", "178 to 180 °C"),
]

Value of melting point reported for the molecule NC(=O)C1(c2ccn(C(CC(=O)OCc3ccccc3)C(=O)NC(CO)Cc3ccccc3)c2)C=CC(c2ccccc2)=CC1 (stereo not given) is 192 to 194 °C

Origin of values: a melting point compilation (Tetko et al.; mined from patent text by program, amines drawn as free bases though some values may be those of a salt)
